These data points were gathered from PubChem BioAssay.

# Test system: XIP peptide (Xip251-270) binding
# assay: small-molecule binders of XIP peptide, primary screen, biochemical, small-molecule microarray, fluorescence 635/667 nm, 0.1 µg/mL protein (AID 1182)
# condition notes: fluorescent protein binding, 635 nm, higher = more signal, called active from +8 up or from −8 down
Readings of composite z-score for the listed compounds
quantity measured: composite z-score

compound | assay result
C=C[C@H](C)[C@@H](O)c1ccc(O)c2ccccc12 | -0.233
O=C1O[C@H](c2ccccc2)[C@H](c2ccccc2)N2[C@H]1[C@@H](C(=O)O)[C@]1(C(=O)Nc3ccc(C#CC4(O)CCCCCC4)cc31)[C@H]2c1ccc(OCCO)cc1 | 1.31
C=CC[C@@]1(C(=O)N2CCOCC2)N=C(c2ccc(OCCCO)cc2)O[C@@H]1c1ccccc1N=[N+]=[N-] | 1.18
COCCOC(=O)N1C(=O)[C@@]2(c3cc(C#CC4(O)CCCCCC4)ccc31)[C@H](C(=O)N1CCCCCCC1)[C@H]1C(=O)O[C@H](c3ccccc3)[C@H](c3ccccc3)N1[C@@H]2c1ccccc1OCCO | -0.0713
COCCOC(=O)N1C(=O)[C@@]2(c3cc(C#Cc4ccc(OC)cc4)ccc31)[C@H](C(=O)N1CCN(c3ncccn3)CC1)[C@H]1C(=O)O[C@H](c3ccccc3)[C@H](c3ccccc3)N1[C@@H]2c1ccc(O)cc1 | 0.0853
O=C(NCc1ccccc1)[C@]1(CCS(=O)(=O)c2ccccc2)N=C(c2ccc(OCCCO)cc2)O[C@@H]1c1ccccc1 | 0.605
[N-]=[N+]=NCc1ccccc1C[C@@]1(C(=O)NCC(O)CO)N=C(c2ccc(OCCCO)cc2)O[C@@H]1c1ccccc1CN=[N+]=[N-] (stereo partly specified) | -0.0479
Cc1ccc([C@H]2C(C(=O)O)=C[C@@H](C)N2S(=O)(=O)c2ccc(C)cc2)cc1 | 1.78
N#Cc1ccc(NN2C(C(O)c3ccc([N+](=O)[O-])cc3)C=CC3C(=O)N(c4ccccc4)C(=O)C32)cc1 (stereo unspecified) | 0.311
CC(C)C(O)C1C=CC2C(=O)N(c3ccccc3)C(=O)C2N1Nc1ccc(C#N)cc1 (stereo unspecified) | 0.613
COCCOC(=O)N1C(=O)[C@@]2(c3cc(C#CCNC(N)=O)ccc31)[C@H](c1ccc(O)cc1)N1[C@H](c3ccccc3)[C@H](c3ccccc3)OC(=O)[C@H]1[C@@H]2C(=O)NC[C@H](O)c1ccccc1 | 1.82

---

# assay: binders of probe aFGF2 on microarray, primary screen, stem cell growth factor project, biochemical, small-molecule microarray, fluorescence 635/667 (AID 1067);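 note: measures binding of biotinylated aFGF2 protein to printed compounds on slides; z-score merges feature fluorescence and signal-to-noise across triplicate slides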
# condition notes: higher = more signal
# composite z-score binned as range 1: < -0.02; range 2: ≥ -0.02 and < 0.07; range 3: ≥ 0.07

compound | class assignment
CC(C)c1ccc(NN2C(C(O)c3c(F)cccc3Cl)C=CC3C(=O)N(c4ccccc4)C(=O)C32)cc1 (stereo unspecified) | range 3
CC(C)NC(=O)[C@@H]1c2ccccc2C(=O)N(Cc2ccccc2)[C@H]1c1ccc(CO)cc1 | range 2
CCCCC=C[C@@H](NC(=O)c1cccs1)c1ccccc1 | range 3
C=CCNC(=O)[C@@H]1[C@H]2C(=O)O[C@H](c3ccccc3)[C@H](c3ccccc3)N2[C@H](c2ccccc2OCCO)[C@@]12C(=O)Nc1ccc(C#CC3=CCCCC3)cc12 | range 2
Cc1cc(C)c(C(O)C2C=CC3C(=O)N(C)C(=O)C3N2Nc2ccccc2)c(C)c1 (stereo unspecified) | range 3
CC(C)c1ccc(NN2C(C(O)c3ccc(N(C)C)cc3)C=CC3C(=O)N(c4ccccc4)C(=O)C32)cc1 (stereo unspecified) | range 2
CCCN1C(=O)[C@@]2(CCC(=O)OC(C)(C)C)N=C(c3ccc(OCCCO)cc3)O[C@H]2c2ccccc21 | range 1
COC(=O)[C@@]1(Cc2ccc(F)cc2)[C@H]2c3cc(C(=O)N4CCCC4)n(Cc4cccc5ccccc45)c3C[C@H]2CN1C(=O)c1ccccc1 | range 3
CCOC(=O)C[C@H]1[C@H](OC(=O)c2ccccc2-c2ccccc2)[C@@H](NC(=O)c2ccc3ccccc3c2)c2cc(OCCCO)ccc2N1C(=O)c1ccc2ccccc2n1 | range 1
COc1ccc(NN2C(C(O)c3ccc(OC)c(OCc4ccccc4)c3)C=CC3C(=O)N(C4CCCCC4)C(=O)C32)cc1 (stereo unspecified) | range 3
COC(=O)C[C@@H]1C[C@H](C)[C@]2(O1)C(=O)N(Cc1ccccc1)c1ccc(NC(C)=O)cc12 | range 1
CCCCCN1CC=CC23O[C@@H]4/C=C\CCCOC(=O)C4[C@H]2C(=O)N(CCCCCCO)[C@@H]3C1=O (stereo partly specified) | range 1
CCCNC(=O)[C@@]1(c2ccc([N+](=O)[O-])cc2)CC(=O)N(CC23CC4CC(CC(C4)C2)C3)[C@@H]1c1ccc(CO)cc1 | range 2
N[C@@H](Cc1ccccc1)Cn1cc(-c2ccccc2)nn1 | range 1
C=C(COC)C(=O)CC[C@H](OC(C)=O)c1cccc(OCCO)c1 | range 1

---

Readings of composite z-score for the listed compounds
# study target: E3 ubiquitin-protein ligase XIAP (Homo sapiens) (UniProt P98170)
# Sequence (P98170 whole entry, looked up): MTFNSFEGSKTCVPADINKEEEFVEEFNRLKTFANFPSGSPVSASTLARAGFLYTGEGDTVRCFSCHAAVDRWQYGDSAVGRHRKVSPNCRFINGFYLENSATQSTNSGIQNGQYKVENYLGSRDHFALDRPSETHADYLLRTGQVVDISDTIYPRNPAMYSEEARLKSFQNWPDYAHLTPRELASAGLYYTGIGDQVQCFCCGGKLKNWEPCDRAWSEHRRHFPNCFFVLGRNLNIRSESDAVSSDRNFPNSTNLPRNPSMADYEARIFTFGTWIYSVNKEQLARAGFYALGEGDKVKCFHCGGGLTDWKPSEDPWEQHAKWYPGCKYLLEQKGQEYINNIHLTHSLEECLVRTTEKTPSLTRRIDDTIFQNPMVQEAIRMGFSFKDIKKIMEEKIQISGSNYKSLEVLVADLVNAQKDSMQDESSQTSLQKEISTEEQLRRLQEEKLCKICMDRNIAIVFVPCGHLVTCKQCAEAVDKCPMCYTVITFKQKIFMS
# assay: XIAP binders, primary screen, biophysical, small-molecule microarray, fluorescence 635 nm (AID 1181);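 note: score merges 667 nm emission and signal to noise over triplicate slides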
# condition notes: small-molecule microarray binding, higher = more signal
quantity measured: composite z-score

compound | assay result
CC(C)OC(=O)CC(=O)CC(O)c1ccc(C#N)cc1 (stereo unspecified) | -0.194
CC(C)NC(=O)[C@@H]1c2ccccc2C(=O)N(Cc2ccccc2)[C@H]1c1ccc(CO)cc1 | -0.0473
CC(C)N1C(=O)[C@@]2(c3ccc([N+](=O)[O-])cc3)CC(=O)N(CC34CC5CC(CC(C5)C3)C4)[C@@H]2c2ccc(CO)cc21 | -0.0224
COCCOC(=O)N1C(=O)[C@@]2(c3cc(C#CCNC(N)=O)ccc31)[C@H](c1ccc(O)cc1)N1[C@H](c3ccccc3)[C@H](c3ccccc3)OC(=O)[C@H]1[C@@H]2C(=O)NC[C@H](O)c1ccccc1 | -0.0807
O=C1C=CC(=O)[C@@H]2CC(COc3ccccc3)=C3[C@@H](CCc4ccccc4)OB(O)C[C@@H]3[C@H]12 | 0.0767
CC(C)Cc1ccc(CN2CC[C@@H](NS(=O)(=O)c3ccccc3)C2)cc1 | -0.178

---

# assay: FRG1 promoter luciferase signal modulators, primary screen, FRG1 inhibition for FSHD, cell-based, C2C12 myotubes, firefly/Renilla luciferase, luminescence (AID 1084)
# condition notes: higher = more signal, called active from +8 up or from −8 down
quantity measured: z-score

molecule | assay result
CO[C@H]1O[C@H](CO)[C@@H](OC(=O)Nc2ccc3c(c2)OCO3)[C@H](OC(=O)Nc2ccccc2)[C@H]1OC(=O)Nc1ccccc1 | 2.74
COC(=O)[C@@]1(Cc2ccccc2)[C@H]2c3cc(C(=O)N(C)C)n(Cc4c(-c5ccccc5)noc4C)c3C[C@H]2CN1C(=O)c1ccccc1 | 1.6
COc1cc(CO)ccc1OC(C)=O | -0.847
[N-]=[N+]=Nc1ccccc1[C@H]1OC(c2ccc(OCCCO)cc2)=N[C@@]1(CCS(=O)(=O)c1ccccc1)C(=O)O | 3.83
COC(=O)[C@@]1(Cc2ccc(OC)cc2)[C@H]2c3cc(C(=O)N4CCCC4)n(Cc4ccccn4)c3C[C@H]2CN1C(=O)c1ccccc1 | 2.78
CC(C)N1C(=O)[C@@]2(c3ccc([N+](=O)[O-])cc3)CC(=O)N(CC34CC5CC(CC(C5)C3)C4)[C@@H]2c2ccc(CO)cc21 | 0.63
C=CC(COC(C)=O)NS(=O)(=O)c1ccc(Br)cc1 (stereo not given) | -0.747
C=C(CCCC)/C(=C/C[C@H](OC(C)=O)c1ccc(CO)o1)c1cnc2ccccc2c1 | 0.13
NC(=O)NCC#Cc1ccc2c(c1)[C@]1(C(=O)N2)[C@H](C(=O)NC[C@H](O)c2ccccc2)[C@H]2C(=O)O[C@H](c3ccccc3)[C@H](c3ccccc3)N2[C@@H]1c1ccc(O)cc1 | 1.11
O=C(O)[C@@]1(Cc2ccccc2)N=C(c2ccc(OCCCO)cc2)O[C@H]1c1ccccc1 | -3.29
NCCCCCCNC(=O)[C@H]1C[C@H]2C(=O)NCC(=O)N2[C@H]1c1cccc(OCCO)c1 | 1.03
Cc1ccc(S[C@]2(C(=O)NCC(C)C)CC(=O)N(Cc3ccccc3)[C@@H]2c2ccc(CO)cc2I)cc1 | -2.06
COC(=O)C(CC#Cc1ccc2c(c1)[C@]1(C(=O)N2)[C@H](c2ccc(OCCO)cc2)N2[C@H](c3ccccc3)[C@H](c3ccccc3)OC(=O)[C@H]2[C@@H]1C(=O)NC[C@H](O)c1ccccc1)C(=O)OC | 1.03
COCC(=C=CC[C@@H](O)c1ccc(CO)o1)CCO | -1.71
CCOC(=O)C1=C[C@@H](C(C)C)N(S(=O)(=O)c2ccc(C)cc2)[C@H]1c1ccc(C(C)C)cc1 | -1.89
